Below, each entry is listed with its recorded Ki.
# ASSAY_SYSTEM: MMP-9 (Homo sapiens)
# Construct: made in house; host or cells: MMP-9-transfected HT1080 cells (spent media)
# Sequence (P14780 107-707 limits assumed): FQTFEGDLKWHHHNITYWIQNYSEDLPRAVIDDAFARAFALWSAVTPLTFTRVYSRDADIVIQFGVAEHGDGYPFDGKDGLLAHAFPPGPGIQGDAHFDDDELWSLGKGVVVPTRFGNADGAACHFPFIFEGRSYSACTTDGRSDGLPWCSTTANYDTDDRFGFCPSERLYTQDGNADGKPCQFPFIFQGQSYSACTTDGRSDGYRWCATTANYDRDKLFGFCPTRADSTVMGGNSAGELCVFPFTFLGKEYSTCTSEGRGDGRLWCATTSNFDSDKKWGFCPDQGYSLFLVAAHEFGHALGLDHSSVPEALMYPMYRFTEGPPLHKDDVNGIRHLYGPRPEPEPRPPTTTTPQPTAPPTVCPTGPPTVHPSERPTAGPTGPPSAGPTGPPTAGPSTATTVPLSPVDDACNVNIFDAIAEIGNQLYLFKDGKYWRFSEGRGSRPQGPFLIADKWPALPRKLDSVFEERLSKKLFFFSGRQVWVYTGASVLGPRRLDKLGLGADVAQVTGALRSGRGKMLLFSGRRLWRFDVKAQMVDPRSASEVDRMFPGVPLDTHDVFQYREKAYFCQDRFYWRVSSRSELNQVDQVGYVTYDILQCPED
# MEASUREMENT_PROTOCOL: In vitro MMP inhibition, Ki determination (fluorogenic substrate II)
# Format: biochemical
# EXPERIMENTAL_PARAMETERS: value outside parentheses
Field format: number, assumed nM, no unit text.

>>> print(df.to_string())
                        structure_as_smiles  units_text  reading
0  CC(C)CCOc1ccc(N2CCN(S(=O)(=O)C3(C(=O)NO)CCOCC3)CC2)cc1          nM     3.07

Problem: Find the recorded Ki belonging to "O=C(NO)C1(S(=O)(=O)N2CCC(COCC(F)(F)C(F)(F)C(F)(F)F)CC2)CCOCC1" and report it.
Solution: 174
